- Test system: Rattus norvegicus
- Assay explanation: Anti-inflammatory activity in Rattus norvegicus Wistar albino (rat) assessed as inhibition of carrageenan-induced paw edema at 50 mg/kg, po administered 30 min prior to carrageenan-challenge measured at 1 hr by plethysmometric analysis relative to control
- Type: functional
Measure: inhibition in vivo at 50 mg/kg (%)
Just the number in %, nothing appended.

Below, 6 molecules whose answers are already recorded.
COc1cc(OC)cc(C2CC(c3ccc(OC)cc3O)=NN2c2ccc(S(N)(=O)=O)cc2)c1 (centres undefined); 31.9
COc1ccc(C2=NN(c3ccc(S(N)(=O)=O)cc3)C(c3ccc(OC)cc3OC)C2)c(O)c1 (centres undefined); 33.3
COc1ccc(OC)c(C2CC(c3ccc(F)cc3)=NN2c2ccc(S(N)(=O)=O)cc2)c1 (centres undefined); 50.7
COc1ccc(OC)c(C2CC(c3ccc(Cl)cc3)=NN2c2ccc(S(N)(=O)=O)cc2)c1 (centres undefined); 14.5
COc1cc(OC)cc(C2CC(c3ccc(F)cc3)=NN2c2ccc(S(N)(=O)=O)cc2)c1 (centres undefined); 49.3
COc1cccc(C2CC(c3ccc(Cl)cc3)=NN2c2ccc(S(N)(=O)=O)cc2)c1OC (centres undefined); 18.8

Identify the measured inhibition in vivo at 50 mg/kg of COc1cc(OC)cc(C2CC(c3ccc(Cl)cc3)=NN2c2ccc(S(N)(=O)=O)cc2)c1 (centres undefined) for Rattus norvegicus.
11.6

Find inhibition in vivo at 50 mg/kg (Rattus norvegicus) for the entry COc1ccc(C2CC(c3ccc(Cl)cc3)=NN2c2ccc(S(N)(=O)=O)cc2)cc1OC (centres undefined)
57.9

Which measured inhibition in vivo at 50 mg/kg belongs to COc1ccc(C2CC(c3ccc(F)cc3)=NN2c2ccc(S(N)(=O)=O)cc2)cc1OC (centres undefined) , tested on Rattus norvegicus?
62.3
